species on record: Rattus norvegicus; assay: Open TG-GATES - Regimen: Single; format: toxicity, organism-based, Sprague-Dawley; design: regimen Single, gender Male, age 6 weeks; settings: in vivo, po, 300 mg/kg, 24 h, tissue Plasma, route gavage, dose level Middle
In this section we review reported IP values for a set of molecules.
measured-endpoint: IP (mg/dL)

[
  {
    "molecule": "O=C(O)c1cn(C2CC2)c2cc(N3CCNCC3)c(F)cc2c1=O",
    "measured-endpoint": "IP",
    "unit-abbreviation": "mg/dL",
    "reported-value": 9.2
  },
  {
    "molecule": "C[C@H](CS)C(=O)N1CCC[C@H]1C(=O)O",
    "measured-endpoint": "IP",
    "unit-abbreviation": "mg/dL",
    "reported-value": 8.5
  },
  {
    "molecule": "CCc1cc(C(N)=S)ccn1 [ETHIONAMIDE]",
    "measured-endpoint": "IP",
    "unit-abbreviation": "mg/dL",
    "reported-value": 7.9
  },
  {
    "molecule": "O=C(O)c1cc(/N=N/c2ccc(S(=O)(=O)Nc3ccccn3)cc2)ccc1O",
    "measured-endpoint": "IP",
    "unit-abbreviation": "mg/dL",
    "reported-value": 7.2
  },
  {
    "molecule": "Clc1ccccc1CN1CCc2sccc2C1",
    "measured-endpoint": "IP",
    "unit-abbreviation": "mg/dL",
    "reported-value": 8.7
  }
]
